Each recorded value in this set is attributed to ChEMBL document CHEMBL2062476.

# key: entry, value: CC50 at 72 h
assay: Cytotoxicity against african green monkey Vero C1008 cells incubated for 72 hrs by resazurin dye based fluorometric assay; format: cell-based; details: chlorocebus sabaeus
Write the value in µg/mL as a bare number.

compound="COc1ccc(C2C(C(=O)/C=C/c3cccs3)=C(/C=C/c3cccs3)N=C3SC=C(C)N32)cc1 (stereo not drawn)" measure="CC50 at 72 h" observed_value=235
compound="COc1ccc(C2C(C(=O)/C=C/c3ccccc3)=C(/C=C/c3ccccc3)N=C3SC=C(C)N32)cc1 (stereo not drawn)" measure="CC50 at 72 h" observed_value=211
compound="CC1=CSC2=NC(/C=C/c3ccc(Cl)cc3)=C(C(=O)/C=C/c3ccc(Cl)cc3)C(c3ccccc3)N12 (stereo not drawn)" measure="CC50 at 72 h" observed_value=252

Task: Tell me CC50 at 72 h reported for CC1=CSC2=NC(/C=C/c3cccc(Cl)c3)=C(C(=O)/C=C/c3cccc(Cl)c3)C(c3ccccc3)N12 (stereo not drawn)
Output: 286

Task: Determine from records and report CC50 at 72 h for CC1=CSC2=NC(/C=C/c3ccccc3Cl)=C(C(=O)/C=C/c3ccccc3Cl)C(c3ccccc3)N12 (stereo not drawn)
Output: 206

Task: For CC1=CSC2=NC(/C=C/c3ccc(Br)cc3)=C(C(=O)/C=C/c3ccc(Br)cc3)C(c3ccc(Cl)cc3)N12 (stereo not drawn) , write its CC50 at 72 h.
Output: 420

Task: Give the measured CC50 at 72 h for COc1ccc(/C=C/C(=O)C2=C(/C=C/c3ccc(OC)cc3)N=C3SC=C(C)N3C2c2ccccc2)cc1 (stereo not drawn)
Output: 358

Task: Annotate the compound CC1=CSC2=NC(/C=C/c3ccc(F)cc3)=C(C(=O)/C=C/c3ccc(F)cc3)C(c3ccccc3)N12 (stereo not drawn) with its measured CC50 at 72 h.
Output: 306
